Test system: 324938-238-R-J1-PDC complex spheroid viability
assay.text: Anticancer human tumor 324938-238-R-J1-PDC patient-derived bladder carcinoma cell line growth inhibition
condition: second compound 1 µM; first compound 0.003 µM; stronger effect = lower value
quantity.measured: viability, T/C

Examples with their reported viability, T/C follow.
Nc1ccn(C2OC(CO)C(O)C2(F)F)c(=O)n1 (stereo unspecified) + NC1CC1c1ccc(-c2cccc(O)c2)cc1
7.32%
CCc1c2c(nc3ccc(O)cc13)-c1cc3c(c(=O)n1C2)COC(=O)[C@]3(O)CC + NC1CCC(NC2CC2c2ccccc2)CC1
8.97%
Nc1ncn(C2CC(O)C(CO)S2)c(=O)n1 (stereo unspecified) + NC1CCC(NC2CC2c2ccccc2)CC1
64.8%
Nc1ncn(C2CC(O)C(CO)S2)c(=O)n1 (stereo unspecified) + NC1CC1c1ccc(-c2cccc(O)c2)cc1
59.2%
Nc1ccn(C2OC(CO)C(O)C2(F)F)c(=O)n1 (stereo unspecified) + NC1CCC(NC2CC2c2ccccc2)CC1
9.08%

Lookup: Entry CCc1c2c(nc3ccc(O)cc13)-c1cc3c(c(=O)n1C2)COC(=O)[C@]3(O)CC + NC1CC1c1ccc(-c2cccc(O)c2)cc1 : reported viability, T/C = ?
Found: 8.14%

###

Tested on: 324938-238-R-J1-PDC complex spheroid viability
assay.text: Anticancer human tumor 324938-238-R-J1-PDC cell line growth inhibition
condition: compound alone; run of 12/07/2021
quantity.measured: IC50

Lookup: Entry NC1CC1c1ccc(-c2cccc(O)c2)cc1 (stereo unspecified) : reported IC50 = ?
Found: > 10 µM

###

Consider the following compounds and their measured pIC50 readings.
System: 324938-238-R-J1-PDC complex spheroid viability
assay.text: Anticancer human tumor 324938-238-R-J1-PDC cell line growth inhibition
condition: curve of first compound; second compound 0.316 µM
The meaning of pIC50 here: minus log10 of the concentration in molar units.

Examples with their reported pIC50 follow.
Nc1ccccc1NC(=O)c1ccc(CNC(=O)OCc2cccnc2)cc1 + NC1CCC(NC2CC2c2ccccc2)CC1
6.41
O=C(c1cc(Cc2n[nH]c(=O)c3ccccc23)ccc1F)N1CCN(C(=O)C2CC2)CC1 + NC1CC1c1ccc(-c2cccc(O)c2)cc1
5.70
CC1COCCN1c1cc(-c2ccnn2C)c2ccnc(-c3ccn[nH]3)c2n1 (stereo not given) + NC1CCC(NC2CC2c2ccccc2)CC1
7.39
CC(C)CC(NC(=O)C(Cc1ccccc1)NC(=O)c1cnccn1)B(O)O (stereo not given) + NC1CC1c1ccc(-c2cccc(O)c2)cc1
9.39
CC(C)CC(NC(=O)C(Cc1ccccc1)NC(=O)c1cnccn1)B(O)O (stereo not given) + NC1CCC(NC2CC2c2ccccc2)CC1
9.35

Lookup: Entry Nc1ncn(C2CC(O)C(CO)S2)c(=O)n1 (stereo not given) + NC1CC1c1ccc(-c2cccc(O)c2)cc1 : reported pIC50 = ?
Found: 7.88

Lookup: Here is the next compound: COc1ccc([C@@H](O)c2cc(-c3ncnc4cc(N5CCOCC5)ccc34)c(F)cc2Cl)nn1 + NC1CC1c1ccc(-c2cccc(O)c2)cc1
Found: 6.32

Lookup: Here is the next compound: Nc1ncn(C2CC(O)C(CO)O2)c(=O)n1 (stereo not given) + NC1CC1c1ccc(-c2cccc(O)c2)cc1
Found: 6.84

###

System: 324938-238-R-J1-PDC complex spheroid viability
assay.text: Anticancer human tumor 324938-238-R-J1-PDC cell line growth inhibition;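 note: spheroids also contain HUVEC and human MSCs and agents combined with iadademstat; spheroids exposed to agents for 7 days before readout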
condition: second compound 0.316 µM; first compound 1 µM; stronger effect = lower value
Text: Multicellular complex tumor spheroid response to LSD1 Inhibitor Iadademstat in combination with a variety of drugs and investigational agents in selected tumor cell lines The current study was undertaken to assess response to LSD1 inhibitors in combination with standard-of-care drugs and investigational agents in solid tumor complex spheroid models as well as in the K-562 leukemia. […] Compounds. […] If the clinical Cmax for an agent had not been determined, the highest concentration tested was 10 microM. […]
quantity.measured: viability, T/C (%)
Answer in %, number only, no unit symbol.

CC1(C)CCC(CN2CCN(c3ccc(C(=O)NS(=O)(=O)c4ccc(NCC5CCOCC5)c([N+](=O)[O-])c4)c(Oc4cnc5[nH]ccc5c4)c3)CC2)=C(c2ccc(Cl)cc2)C1 + NC1CC1c1ccc(-c2cccc(O)c2)cc1
66.5
COc1ccc([C@@H](O)c2cc(-c3ncnc4cc(N5CCOCC5)ccc34)c(F)cc2Cl)nn1 + NC1CC1c1ccc(-c2cccc(O)c2)cc1
45.7
COc1cc(Nc2ncc3c(n2)-c2ccc(Cl)cc2C(c2c(F)cccc2OC)=NC3)ccc1C(=O)O + NC1CC1c1ccc(-c2cccc(O)c2)cc1
14.8

Lookup: Entry CC1COCCN1c1cc(C2(S(C)(=N)=O)CC2)nc(-c2ccnc3[nH]ccc23)n1 (stereo unspecified) + NC1CCC(NC2CC2c2ccccc2)CC1 : reported viability, T/C = ?
Found: 43.4

Lookup: Here is the next compound: Nc1ncn(C2CC(O)C(CO)O2)c(=O)n1 (stereo unspecified) + NC1CCC(NC2CC2c2ccccc2)CC1
Found: 42

Lookup: Here is the next compound: O=C(c1cc(Cc2n[nH]c(=O)c3ccccc23)ccc1F)N1CCN(C(=O)C2CC2)CC1 + NC1CC1c1ccc(-c2cccc(O)c2)cc1
Found: 62.7

###

System: 324938-238-R-J1-PDC complex spheroid viability
assay.text: Anticancer human tumor 324938-238-R-J1-PDC cell line growth inhibition;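 note: spheroids also contain HUVEC and human MSCs and agents combined with iadademstat; spheroids exposed to agents for 7 days before readout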
condition: second compound 0.316 µM; first compound 1 µM; stronger effect = lower value
quantity.measured: viability, T/C

COc1cc(Nc2ncc3c(n2)-c2ccc(Cl)cc2C(c2c(F)cccc2OC)=NC3)ccc1C(=O)O + NC1CCC(NC2CC2c2ccccc2)CC1
20.9%
COc1ccc([C@@H](O)c2cc(-c3ncnc4cc(N5CCOCC5)ccc34)c(F)cc2Cl)nn1 + NC1CCC(NC2CC2c2ccccc2)CC1
58%
CC1COCCN1c1cc(-c2ccnn2C)c2ccnc(-c3ccn[nH]3)c2n1 (stereo not given) + NC1CC1c1ccc(-c2cccc(O)c2)cc1
11.6%
CC(C)c1c(-c2ccccc2)nc2c(C#N)c[nH]n2c1=O + NC1CC1c1ccc(-c2cccc(O)c2)cc1
82.6%

Switching to the query record.
Lookup: Record O=C(C=Cn1cnc(-c2cc(C(F)(F)F)cc(C(F)(F)F)c2)n1)NNc1cnccn1 + NC1CCC(NC2CC2c2ccccc2)CC1 : what is its viability, T/C with 324938-238-R-J1-PDC complex spheroid viability?
Found: 3.24%

###

Tested on: 324938-238-R-J1-PDC complex spheroid viability
assay.text: Anticancer human tumor 324938-238-R-J1-PDC cell line growth inhibition;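 note: spheroids also contain HUVEC and human MSCs and agents combined with iadademstat; spheroids exposed to agents for 7 days before readout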
condition: second compound 10 µM; first compound 0.1 µM; stronger effect = lower value
Values of viability, T/C strictly less than 60% map to Met, and values of at least 60% map to Not met.

Worked cases, answers included:
CC(C)c1c(-c2ccccc2)nc2c(C#N)c[nH]n2c1=O + NC1CC1c1ccc(-c2cccc(O)c2)cc1
Not met
COc1ccc([C@@H](O)c2cc(-c3ncnc4cc(N5CCOCC5)ccc34)c(F)cc2Cl)nn1 + NC1CCC(NC2CC2c2ccccc2)CC1
Not met
O=C(c1cc(Cc2n[nH]c(=O)c3ccccc23)ccc1F)N1CCN(C(=O)C2CC2)CC1 + NC1CC1c1ccc(-c2cccc(O)c2)cc1
Not met

Lookup: Would you kindly verify if viability, T/C of O=C(C=Cn1cnc(-c2cc(C(F)(F)F)cc(C(F)(F)F)c2)n1)NNc1cnccn1 + NC1CC1c1ccc(-c2cccc(O)c2)cc1 is strictly less than 60%?
Found: Met

Lookup: Here is the next compound: CC1(C)CCC(CN2CCN(c3ccc(C(=O)NS(=O)(=O)c4ccc(NCC5CCOCC5)c([N+](=O)[O-])c4)c(Oc4cnc5[nH]ccc5c4)c3)CC2)=C(c2ccc(Cl)cc2)C1 + NC1CCC(NC2CC2c2ccccc2)CC1
Found: Not met

###

System: 324938-238-R-J1-PDC complex spheroid viability
assay.text: Anticancer human tumor 324938-238-R-J1-PDC cell line growth inhibition;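 note: spheroids also contain HUVEC and human MSCs and agents combined with iadademstat; spheroids exposed to agents for 7 days before readout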
condition: second compound 0.316 µM; first compound 0.0316 µM; stronger effect = lower value
Consider the following molecules and their measured viability, T/C readings.
Answer in %, number only, no unit symbol.

Examples with their reported viability, T/C follow.
CC(C)c1c(-c2ccccc2)nc2c(C#N)c[nH]n2c1=O + NC1CCC(NC2CC2c2ccccc2)CC1
83
O=C(C=Cn1cnc(-c2cc(C(F)(F)F)cc(C(F)(F)F)c2)n1)NNc1cnccn1 + NC1CCC(NC2CC2c2ccccc2)CC1
19.9
CC(C)c1c(-c2ccccc2)nc2c(C#N)c[nH]n2c1=O + NC1CC1c1ccc(-c2cccc(O)c2)cc1
82.9
Nc1ncn(C2CC(O)C(CO)O2)c(=O)n1 (configuration not stated) + NC1CCC(NC2CC2c2ccccc2)CC1
68.4
O=C(C=Cn1cnc(-c2cc(C(F)(F)F)cc(C(F)(F)F)c2)n1)NNc1cnccn1 + NC1CC1c1ccc(-c2cccc(O)c2)cc1
14.2

Lookup: Record Cn1ncnc1C1c2n[nH]c(=O)c3cc(F)cc(c23)NC1c1ccc(F)cc1 (configuration not stated) + NC1CCC(NC2CC2c2ccccc2)CC1 : what is its viability, T/C with 324938-238-R-J1-PDC complex spheroid viability?
Found: 65.4

Lookup: Here is the next molecule: CC1COCCN1c1cc(C2(S(C)(=N)=O)CC2)nc(-c2ccnc3[nH]ccc23)n1 (configuration not stated) + NC1CCC(NC2CC2c2ccccc2)CC1
Found: 93.9
